# Tested System: PHL (Photorhabdus asymbiotica, UniProt C7BLE4)
# Sequence (C7BLE4 1-369): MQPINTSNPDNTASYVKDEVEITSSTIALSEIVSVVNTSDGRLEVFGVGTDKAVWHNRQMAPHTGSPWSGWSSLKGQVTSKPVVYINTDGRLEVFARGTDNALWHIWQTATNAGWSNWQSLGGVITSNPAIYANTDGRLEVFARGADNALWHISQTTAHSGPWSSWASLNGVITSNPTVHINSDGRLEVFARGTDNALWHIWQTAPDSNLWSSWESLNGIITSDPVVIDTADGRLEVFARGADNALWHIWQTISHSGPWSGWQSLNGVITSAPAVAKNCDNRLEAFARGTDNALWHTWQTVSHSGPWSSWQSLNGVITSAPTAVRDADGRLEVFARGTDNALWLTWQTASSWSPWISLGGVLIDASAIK
# Test Description: Isothermal titration calorimetry (ITC)
# Type: binding
# Details: ITC at 25°C, stoichiometry fixed to 3; read-out: KD (n = 3)
Metric Name: Kd (mM)

[[record]]
compound = "CC(=O)N[C@H]1[C@@H](O[C@H]2[C@@H](O)[C@@H](CO)O[C@@H](O)[C@@H]2O[C@@H]2O[C@@H](C)[C@@H](O)[C@@H](O)[C@@H]2O)O[C@H](CO)[C@H](O)[C@@H]1O [BGA trisaccharide]"
metric_name = "Kd"
reported = 1.45

[[record]]
compound = "C[C@@H]1O[C@@H](O[C@H]2C(O)O[C@H](CO)[C@H](O)[C@@H]2O[C@H]2O[C@H](CO)[C@H](O)[C@H](O)[C@H]2O)[C@@H](O)[C@H](O)[C@@H]1O (some centres unmarked) [BGB trisaccharide]"
metric_name = "Kd"
reported = 0.57

[[record]]
compound = "CC(=O)N[C@H]1C(O)O[C@H](CO)[C@@H](O[C@@H]2O[C@@H](C)[C@@H](O)[C@@H](O)[C@@H]2O)[C@@H]1O (some centres unmarked)"
metric_name = "Kd"
reported = 4.46

[[record]]
compound = "CC(=O)N[C@H]1C(O)O[C@H](CO)[C@@H](O[C@@H]2O[C@H](CO)[C@H](O)[C@H](O)[C@H]2O[C@@H]2O[C@@H](C)[C@@H](O)[C@@H](O)[C@@H]2O)[C@@H]1O (some centres unmarked) [BGH trisaccharide]"
metric_name = "Kd"
reported = 4.44

[[record]]
compound = "CC(=O)N[C@H]1C(O)O[C@H](CO)[C@@H](O)[C@@H]1O[C@@H]1O[C@@H](C)[C@@H](O)[C@@H](O)[C@@H]1O (some centres unmarked)"
metric_name = "Kd"
reported = 3.52


* * *

# Tested System: PHL (Photorhabdus asymbiotica, UniProt C7BLE4)
# Test Description: Isothermal titration calorimetry (ITC)
# Assay type: binding
# Details: ITC at 25°C, stoichiometry fixed to 4; read-out: KD (n = 4)
Metric Name: Kd (mM)

[[record]]
compound = "OC[C@H]1OC(O)[C@@H](O)[C@@H](O)[C@@H]1O (stereo partly drawn) [D-Man, D-mannose]"
reported = 44.4

[[record]]
compound = "CO[C@H]1O[C@@H](C)[C@@H](O)[C@@H](O)[C@@H]1O [Me-β-L-Fuc, methyl-β-L-fucopyranoside]"
reported = 3.48

[[record]]
compound = "CO[C@@H]1O[C@@H](C)[C@@H](O)[C@@H](O)[C@@H]1O [Me-α-L-Fuc, Methyl-α-L-fucopyranoside]"
reported = 0.21

[[record]]
compound = "CC(=O)N[C@H]1C(O)O[C@H](CO)[C@@H](O[C@@H]2O[C@@H](C)[C@@H](O)[C@@H](O)[C@@H]2O)[C@@H]1O (stereo partly shown) [Fucα1-4GlcNAc]"
reported = 4.37


* * *

# Tested System: PHL (Photorhabdus asymbiotica, UniProt C7BLE4)
# Test Description: Haemagglutination inhibition assay with PHL
# Assay type: cell-based
# Details: haemagglutination inhibition, from MIC
compounds and their reported Potency towards L-fucose
Metric Name: Potency towards L-fucose

[[record]]
compound = "C[C@@H]1O[C@@H](O[C@H]2C(O)O[C@H](CO)[C@H](O)[C@@H]2O[C@H]2O[C@H](CO)[C@H](O)[C@H](O)[C@H]2O)[C@@H](O)[C@H](O)[C@@H]1O (stereo partly drawn) [BGB trisaccharide]"
reported = 10

[[record]]
compound = "OC[C@H]1OC(O)[C@@H](O)[C@@H](O)[C@@H]1O (stereo partly drawn)"
reported = "<0.01"

[[record]]
compound = "CC(=O)N[C@H]1[C@@H](O[C@H]2[C@@H](O)[C@@H](CO)O[C@@H](O)[C@@H]2O[C@@H]2O[C@@H](C)[C@@H](O)[C@@H](O)[C@@H]2O)O[C@H](CO)[C@H](O)[C@@H]1O [BGA trisaccharide]"
reported = 1.3

[[record]]
compound = "CC(=O)N[C@H]1C(O)O[C@H](CO)[C@@H](O)[C@@H]1O[C@@H]1O[C@@H](C)[C@@H](O)[C@@H](O)[C@@H]1O (stereo partly drawn)"
reported = 1.3

[[record]]
compound = "C[C@H](O)[C@@H](O)[C@@H](O)[C@H](O)C=O"
reported = 1

[[record]]
compound = "CC(=O)N[C@H]1C(O)O[C@H](CO)[C@@H](O[C@@H]2O[C@@H](C)[C@@H](O)[C@@H](O)[C@@H]2O)[C@@H]1O (stereo partly drawn)"
reported = 1.3

[[record]]
compound = "CO[C@H]1O[C@@H](C)[C@@H](O)[C@@H](O)[C@@H]1O [Me-β-L-Fuc, methyl-β-L-fucopyranoside]"
reported = 0.5

[[record]]
compound = "OC[C@H]1OC(O)[C@H](O)[C@@H](O)[C@@H]1O (stereo partly drawn)"
reported = "<0.01"

[[record]]
compound = "O=C[C@H](O)[C@@H](O)[C@@H](O)[C@H](O)CO"
reported = "<0.01"

[[record]]
compound = "CO[C@@H]1O[C@@H](C)[C@@H](O)[C@@H](O)[C@@H]1O [Me-α-L-Fuc, Methyl-α-L-fucopyranoside]"
reported = 8

[[record]]
compound = "CC(=O)N[C@H]1C(O)O[C@H](CO)[C@@H](O[C@@H]2O[C@H](CO)[C@H](O)[C@H](O)[C@H]2O[C@@H]2O[C@@H](C)[C@@H](O)[C@@H](O)[C@@H]2O)[C@@H]1O (stereo partly drawn) [BGH trisaccharide]"
reported = "<0.01"

[[record]]
compound = "CC(=O)N[C@@H]1[C@@H](O)[C@H](O)[C@@H](CO)O[C@@H]1O"
reported = "<0.01"


Entry source: paper PMC5584973
